tested on: HCV replicon 1B; test: HCV Rep 1B EC50 (replicon luciferase); type: cell-based; conditions: Hepatitis C virus, 72 h, read-out: HCV Rep 1B EC50, replicon cells, 3 days
pEC50: −log10 of the molar value.
Threshold check on pEC50: at or above 6 gives true (1), strictly below gives false (0).

Study these solved cases before continuing.
>  <COMPOUND>
C[C@H](NP(=O)(OC[C@@]1(C#N)O[C@@H](c2ccc3c(N)ncnn23)[C@H](O)[C@@H]1O)Oc1ccccc1)C(=O)OCCC(C)(C)C (stereo partly shown) [Example 251]

>  <MEASURED TARGET>
HCV replicon 1B

>  <CLASSIFICATION>
true (1)

$$$$
>  <COMPOUND>
C[C@H](NP(=O)(OC[C@@]1(C#N)O[C@@H](c2ccc3c(N)ncnn23)[C@H](O)[C@@H]1O)Oc1cccc2ccccc12)C(=O)OC1CCCCC1 (stereo partly shown)

>  <MEASURED TARGET>
HCV replicon 1B

>  <CLASSIFICATION>
true (1)

$$$$
>  <COMPOUND>
CCC(CC)COC(=O)[C@H](CC)NP(=O)(OC[C@@]1(C#N)O[C@@H](c2ccc3c(N)ncnn23)[C@H](O)[C@@H]1O)Oc1ccccc1 (mixture of isomers)

>  <MEASURED TARGET>
HCV replicon 1B

>  <CLASSIFICATION>
false (0)

$$$$
>  <COMPOUND>
CCC(C)(C)COC(=O)[C@H](C)NP(=O)(OC[C@@]1(C#N)O[C@@H](c2ccc3c(N)ncnn23)[C@H](O)[C@@H]1O)Oc1ccccc1 (stereo partly shown)

>  <MEASURED TARGET>
HCV replicon 1B

>  <CLASSIFICATION>
true (1)

$$$$
>  <COMPOUND>
CCCCCCCCCCCCOC(=O)[C@H](C)NP(=O)(OC[C@@]1(C#N)O[C@@H](c2ccc3c(N)ncnn23)[C@H](O)[C@@H]1O)Oc1ccccc1 (stereo partly shown)

>  <MEASURED TARGET>
HCV replicon 1B

>  <CLASSIFICATION>
false (0)

$$$$
>  <COMPOUND>
CCC(CC)COC(=O)[C@H](C)N[P@](=O)(OC[C@@]1(C#N)O[C@@H](c2ccc3c(N)ncnn23)[C@H](O)[C@@H]1O)Oc1ccccc1 (single isomer, unassigned)

>  <MEASURED TARGET>
HCV replicon 1B

>  <CLASSIFICATION>
true (1)

$$$$

Decide: is the reported value of pEC50 for C[C@H](NP(=O)(OC[C@@]1(C#N)O[C@@H](c2ccc3c(N)ncnn23)[C@H](O)[C@@H]1O)Oc1ccccc1)C(=O)O[C@H]1CCOC1 (single isomer, unassigned) equal to or greater than 6?
false (0)
